# System: Human immunodeficiency virus 1
# Test protocol: Antiviral activity against HIV1 wild type NL (4 to 3) infected in human MT2 cells measured after 4 to 5 days in presence of human serum by dual-luciferase reporter assay
# Assay type: functional, organism-based
# Experimental conditions: Human immunodeficiency virus 1, MT2
pEC50: −log10 of the molar value.

{"Compound": "C=C(C)[C@@H]1CC[C@]2(NCCN3CCC(S(C)(=O)=O)CC3)CC[C@]3(C)[C@H](CC[C@@H]4[C@@]5(C)CC=C(C6=CCC(C(=O)O)(C(F)F)CC6)C(C)(C)[C@@H]5CC[C@]43C)[C@@H]12 (some centres undefined)", "pEC50": 7.90}
{"Compound": "C=C(C)[C@@H]1CC[C@]2(NCCN3CCS(=O)(=O)CC3)CC[C@]3(C)[C@H](CC[C@@H]4[C@@]5(C)CC=C(C6=CCC(COC)(C(=O)O)CC6)C(C)(C)[C@@H]5CC[C@]43C)[C@@H]12 (some centres undefined)", "pEC50": 8.17}
{"Compound": "C=C(C)[C@@H]1CC[C@]2(NCCN3CCS(=O)(=O)CC3)CC[C@]3(C)[C@H](CC[C@@H]4[C@@]5(C)CC=C(C6=CCC(CC)(C(=O)O)CC6)C(C)(C)[C@@H]5CC[C@]43C)[C@@H]12 (some centres undefined)", "pEC50": 7.42}
{"Compound": "C=C(C)[C@@H]1CC[C@]2(NCCN3CCS(=O)(=O)CC3)CC[C@]3(C)[C@H](CC[C@@H]4[C@@]5(C)CC=C(C6=CCC(CC(=O)O)(C(=O)O)CC6)C(C)(C)[C@@H]5CC[C@]43C)[C@@H]12 (some centres undefined)", "pEC50": 6.87}

---

# System: Human immunodeficiency virus 1
# Test protocol: Antiviral activity against HIV1 wild type NL (4 to 3) infected in human MT2 cells measured after 4 to 5 days by dual-luciferase reporter assay
# Type: functional, organism-based
# Experimental conditions: Human immunodeficiency virus 1, MT2

{"Compound": "C=C(C)[C@@H]1CC[C@]2(NCCN3CCC(S(C)(=O)=O)CC3)CC[C@]3(C)[C@H](CC[C@@H]4[C@@]5(C)CC=C(C6=CCC(CCO)(C(=O)O)CC6)C(C)(C)[C@@H]5CC[C@]43C)[C@@H]12 (some centres undefined)", "Units symbol": "nM", "EC50": 3}
{"Compound": "C=C(C)[C@@H]1CC[C@]2(NCCN3CCC(S(C)(=O)=O)CC3)CC[C@]3(C)[C@H](CC[C@@H]4[C@@]5(C)CC=C(C6=CC[C@](CF)(C(=O)O)CC6)C(C)(C)[C@@H]5CC[C@]43C)[C@@H]12", "Units symbol": "nM", "EC50": 2.3}
{"Compound": "C=C(C)[C@@H]1CC[C@]2(NCCN3CCS(=O)(=O)CC3)CC[C@]3(C)[C@H](CC[C@@H]4[C@@]5(C)CC=C(C6=CC7(C6)CC(C(=O)O)(C(=O)O)C7)C(C)(C)[C@@H]5CC[C@]43C)[C@@H]12", "Units symbol": "nM", "EC50": 1.3}
{"Compound": "C=C(C)[C@@H]1CC[C@]2(NCCN3CCS(=O)(=O)CC3)CC[C@]3(C)[C@H](CC[C@@H]4[C@@]5(C)CC=C(C6=CCC(CCO)(C(=O)O)CC6)C(C)(C)[C@@H]5CC[C@]43C)[C@@H]12 (some centres undefined)", "Units symbol": "nM", "EC50": 4.6}
